Observed pKi, system NAALADase (Rattus norvegicus, UniProt P70627).
pKi: −log10 of the molar value.
propertyName: pKi

> print(dat)
                                   molecule  propertyname  reportedvalue
1  CC(C)(C)c1ccc(NCP(=O)(O)CC(CCC(=O)O)C(=O)O)cc1 (stereo not drawn) [drawing 32]           pKi           8.70
2  Cc1ccc(NCP(=O)(O)CC(CCC(=O)O)C(=O)O)cc1 (stereo not drawn) [drawing 31]           pKi           8.28
3  O=C(O)CCC(CP(=O)(O)CNS(=O)(=O)c1ccccc1)C(=O)O (stereo not drawn)           pKi           7.05
4  O=C(O)CCC(CP(=O)(O)CNc1ccc(F)cc1)C(=O)O (stereo not drawn) [drawing 29]           pKi           8.05
5  O=C(O)CCC(CP(=O)(O)CN1C(=O)c2ccccc2C1=O)C(=O)O (stereo not drawn)           pKi           7.46
6  COc1ccc(NCP(=O)(O)CC(CCC(=O)O)C(=O)O)cc1 (stereo not drawn) [drawing 30]           pKi           8.60
